- Target desc: PBK/TOPK (Homo sapiens, UniProt Q96KB5)
- Construct: Reaction Biology kinase panel
- Sequence (Q96KB5 whole entry): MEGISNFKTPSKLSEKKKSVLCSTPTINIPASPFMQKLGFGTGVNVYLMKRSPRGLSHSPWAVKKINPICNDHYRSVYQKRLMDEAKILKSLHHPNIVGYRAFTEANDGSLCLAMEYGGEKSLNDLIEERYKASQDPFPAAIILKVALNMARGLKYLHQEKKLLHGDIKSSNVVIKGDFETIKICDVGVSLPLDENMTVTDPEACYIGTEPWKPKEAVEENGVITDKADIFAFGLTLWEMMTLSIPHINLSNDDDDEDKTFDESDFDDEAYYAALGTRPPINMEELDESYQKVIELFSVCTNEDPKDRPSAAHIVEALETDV
- Test description: […]-ATP kinase assay, P81 filter binding
Test readout: pIC50
In plain terms, pIC50 is the concentration in mol/L turned into minus its base-10 logarithm.

## Task Give its pIC50 value. Item: O=c1c(-c2ccc(O)c(O)c2)coc2cc(O)cc(O)c12
## Result 5.78

---

- Target desc: PI3Kα (Homo sapiens)
- Construct: commercial kinase; with Phosphatidylinositol 3-kinase regulatory subunit alpha
- Sequence (P42336 whole entry): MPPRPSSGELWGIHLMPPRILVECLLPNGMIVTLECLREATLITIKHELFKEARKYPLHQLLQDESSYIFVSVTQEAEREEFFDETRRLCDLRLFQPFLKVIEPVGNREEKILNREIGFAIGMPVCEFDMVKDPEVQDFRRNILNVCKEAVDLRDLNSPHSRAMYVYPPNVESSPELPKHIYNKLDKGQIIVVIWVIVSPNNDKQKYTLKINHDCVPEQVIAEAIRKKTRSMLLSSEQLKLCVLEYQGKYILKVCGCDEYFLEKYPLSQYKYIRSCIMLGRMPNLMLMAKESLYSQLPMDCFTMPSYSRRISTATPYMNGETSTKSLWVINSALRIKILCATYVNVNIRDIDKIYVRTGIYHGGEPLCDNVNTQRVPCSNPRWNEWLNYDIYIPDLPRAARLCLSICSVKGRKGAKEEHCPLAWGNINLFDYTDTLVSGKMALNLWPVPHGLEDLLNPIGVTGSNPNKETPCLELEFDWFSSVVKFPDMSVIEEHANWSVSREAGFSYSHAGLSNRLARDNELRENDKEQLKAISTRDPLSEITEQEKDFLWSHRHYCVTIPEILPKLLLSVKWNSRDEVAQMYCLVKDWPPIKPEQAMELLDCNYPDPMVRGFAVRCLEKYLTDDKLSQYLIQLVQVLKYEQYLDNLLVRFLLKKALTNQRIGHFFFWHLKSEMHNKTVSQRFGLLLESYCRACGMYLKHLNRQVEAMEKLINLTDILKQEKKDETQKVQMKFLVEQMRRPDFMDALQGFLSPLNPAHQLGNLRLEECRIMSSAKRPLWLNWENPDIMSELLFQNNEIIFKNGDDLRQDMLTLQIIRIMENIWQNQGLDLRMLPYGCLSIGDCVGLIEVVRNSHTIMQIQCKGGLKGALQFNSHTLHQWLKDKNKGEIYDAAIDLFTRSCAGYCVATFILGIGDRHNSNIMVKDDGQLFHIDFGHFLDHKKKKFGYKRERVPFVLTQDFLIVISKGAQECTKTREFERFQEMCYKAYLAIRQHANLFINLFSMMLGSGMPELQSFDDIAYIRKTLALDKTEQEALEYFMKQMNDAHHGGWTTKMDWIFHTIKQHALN
- Sequence (P27986 2-724 partner): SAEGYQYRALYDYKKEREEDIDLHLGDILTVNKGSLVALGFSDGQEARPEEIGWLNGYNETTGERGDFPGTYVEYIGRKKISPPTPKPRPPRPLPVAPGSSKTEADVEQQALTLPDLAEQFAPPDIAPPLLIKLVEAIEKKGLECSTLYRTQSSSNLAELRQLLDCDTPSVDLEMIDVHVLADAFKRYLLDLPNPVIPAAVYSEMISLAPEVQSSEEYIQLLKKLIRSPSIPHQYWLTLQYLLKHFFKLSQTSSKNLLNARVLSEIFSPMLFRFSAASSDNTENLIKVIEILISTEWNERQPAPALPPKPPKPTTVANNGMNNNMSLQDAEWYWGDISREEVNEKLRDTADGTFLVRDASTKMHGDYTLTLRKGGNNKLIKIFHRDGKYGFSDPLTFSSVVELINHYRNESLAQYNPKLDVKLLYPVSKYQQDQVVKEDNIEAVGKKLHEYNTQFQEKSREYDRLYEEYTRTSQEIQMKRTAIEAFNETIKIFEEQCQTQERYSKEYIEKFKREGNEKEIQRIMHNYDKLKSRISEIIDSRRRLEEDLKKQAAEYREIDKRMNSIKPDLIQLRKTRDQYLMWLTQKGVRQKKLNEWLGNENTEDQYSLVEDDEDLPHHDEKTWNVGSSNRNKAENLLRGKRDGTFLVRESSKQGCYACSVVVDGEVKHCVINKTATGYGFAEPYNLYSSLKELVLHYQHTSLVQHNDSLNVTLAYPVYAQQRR
- Test description: kinase inhibition assay
Test readout: IC50 (µM)
Could you give me the number in µM? Just the number is fine.

## Task Bench note: what IC50 did O=c1c(-c2ccc(O)c(O)c2)coc2cc(O)cc(O)c12 show?
## Result 3.46

---

- Target desc: KHS/MAP4K5 (Homo sapiens, UniProt Q9Y4K4)
- Construct: Reaction Biology kinase panel
- Sequence (Q9Y4K4 whole entry): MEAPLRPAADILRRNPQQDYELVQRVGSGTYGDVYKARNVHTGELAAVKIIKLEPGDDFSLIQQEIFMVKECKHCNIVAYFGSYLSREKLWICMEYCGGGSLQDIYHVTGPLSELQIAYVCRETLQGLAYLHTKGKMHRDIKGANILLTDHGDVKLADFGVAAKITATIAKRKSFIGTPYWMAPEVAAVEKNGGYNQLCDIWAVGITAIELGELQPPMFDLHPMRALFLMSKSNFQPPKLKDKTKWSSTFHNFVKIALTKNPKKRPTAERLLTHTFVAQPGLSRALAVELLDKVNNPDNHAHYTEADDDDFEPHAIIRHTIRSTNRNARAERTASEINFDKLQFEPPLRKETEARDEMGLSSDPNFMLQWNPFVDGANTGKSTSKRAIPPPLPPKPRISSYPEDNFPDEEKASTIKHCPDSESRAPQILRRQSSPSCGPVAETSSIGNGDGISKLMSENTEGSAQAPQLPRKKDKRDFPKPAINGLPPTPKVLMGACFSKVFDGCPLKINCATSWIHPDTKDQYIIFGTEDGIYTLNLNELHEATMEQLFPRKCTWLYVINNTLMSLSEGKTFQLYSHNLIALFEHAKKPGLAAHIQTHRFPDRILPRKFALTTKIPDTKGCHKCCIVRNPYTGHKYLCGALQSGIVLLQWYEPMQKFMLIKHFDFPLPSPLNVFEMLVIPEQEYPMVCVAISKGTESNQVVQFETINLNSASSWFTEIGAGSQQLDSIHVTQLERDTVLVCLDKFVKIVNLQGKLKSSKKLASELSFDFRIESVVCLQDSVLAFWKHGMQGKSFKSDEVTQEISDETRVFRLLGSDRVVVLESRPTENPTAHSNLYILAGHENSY
- Test description: […]-ATP kinase assay, P81 filter binding
Test readout: IC50 (nM)
Your answer should be a plain number; it is taken to be in nM.

## Task Look up IC50: O=c1c(-c2ccc(O)c(O)c2)coc2cc(O)cc(O)c12
## Result 1420

---

- Target desc: MUSK (Homo sapiens, UniProt O15146)
- Sequence (O15146 517-869 limits assumed): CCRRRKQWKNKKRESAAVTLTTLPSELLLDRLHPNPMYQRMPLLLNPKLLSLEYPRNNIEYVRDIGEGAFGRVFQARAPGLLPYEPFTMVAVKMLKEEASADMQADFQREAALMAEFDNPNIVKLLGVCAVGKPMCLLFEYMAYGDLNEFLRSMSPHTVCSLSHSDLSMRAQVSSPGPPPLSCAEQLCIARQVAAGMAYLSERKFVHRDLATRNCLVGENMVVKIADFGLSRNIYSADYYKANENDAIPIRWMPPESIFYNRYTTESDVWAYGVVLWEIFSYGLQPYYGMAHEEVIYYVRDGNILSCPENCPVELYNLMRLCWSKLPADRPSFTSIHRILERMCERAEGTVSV
Test readout: pIC50
// returns pIC50 (minus log10 of molar concentration), number only

## Task Tell me the measured pIC50 of O=c1c(-c2ccc(O)c(O)c2)coc2cc(O)cc(O)c12 [orobol] , please.
## Result 5.83

---

- Target desc: PI3Kδ (Homo sapiens, UniProt O00329)
- Construct: commercial kinase; with Phosphatidylinositol 3-kinase regulatory subunit alpha
- Test description: kinase inhibition assay
Test readout: IC50 (µM)
Return type: number; implicit unit µM.

## Task Query for PI3Kδ (Homo sapiens, UniProt O00329): what IC50 does the record show for O=c1c(-c2ccc(O)c(O)c2)coc2cc(O)cc(O)c12 ?
## Result 5.27

---

- Target desc: PI3Kβ (Homo sapiens)
- Construct: commercial kinase; with Phosphatidylinositol 3-kinase regulatory subunit alpha
- Sequence (P42338 whole entry): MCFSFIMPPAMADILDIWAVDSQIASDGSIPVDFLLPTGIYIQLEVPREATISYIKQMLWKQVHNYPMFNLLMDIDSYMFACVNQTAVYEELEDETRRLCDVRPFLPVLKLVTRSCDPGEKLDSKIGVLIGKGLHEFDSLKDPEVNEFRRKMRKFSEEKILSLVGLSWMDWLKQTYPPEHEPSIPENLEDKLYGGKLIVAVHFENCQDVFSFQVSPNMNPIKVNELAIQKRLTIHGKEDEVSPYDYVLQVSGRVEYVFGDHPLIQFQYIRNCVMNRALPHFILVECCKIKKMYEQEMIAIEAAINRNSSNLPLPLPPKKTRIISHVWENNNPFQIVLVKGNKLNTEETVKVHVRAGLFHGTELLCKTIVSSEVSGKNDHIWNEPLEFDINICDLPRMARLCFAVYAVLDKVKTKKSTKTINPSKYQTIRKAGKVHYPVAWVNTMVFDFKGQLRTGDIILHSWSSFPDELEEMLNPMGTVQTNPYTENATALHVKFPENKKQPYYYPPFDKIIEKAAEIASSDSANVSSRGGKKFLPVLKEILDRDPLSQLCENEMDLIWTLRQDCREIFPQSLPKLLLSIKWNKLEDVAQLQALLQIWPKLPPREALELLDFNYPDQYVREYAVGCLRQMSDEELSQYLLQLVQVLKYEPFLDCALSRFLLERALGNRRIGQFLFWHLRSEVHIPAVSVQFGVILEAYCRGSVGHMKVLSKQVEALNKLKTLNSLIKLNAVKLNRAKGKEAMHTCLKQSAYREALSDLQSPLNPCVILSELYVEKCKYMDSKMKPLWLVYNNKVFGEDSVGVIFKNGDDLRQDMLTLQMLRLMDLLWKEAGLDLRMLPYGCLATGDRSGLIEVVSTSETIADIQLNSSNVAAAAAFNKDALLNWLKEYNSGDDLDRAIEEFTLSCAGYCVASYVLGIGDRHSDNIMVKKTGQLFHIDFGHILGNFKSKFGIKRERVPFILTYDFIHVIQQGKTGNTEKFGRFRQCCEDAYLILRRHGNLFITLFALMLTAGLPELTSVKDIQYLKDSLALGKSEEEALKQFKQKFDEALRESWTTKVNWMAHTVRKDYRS
- Sequence (P27986 2-724 partner): as the sequence (P27986 2-724 partner) above
- Test description: kinase inhibition assay
Test readout: IC50

## Task Any idea what its IC50 is? The compound is O=c1c(-c2ccc(O)c(O)c2)coc2cc(O)cc(O)c12 [orobol]
## Result 5.44 µM

---

- Target desc: KDR/VEGFR2 (Homo sapiens)
- Construct: Reaction Biology kinase panel
- Sequence (P35968 789-1356 limits assumed): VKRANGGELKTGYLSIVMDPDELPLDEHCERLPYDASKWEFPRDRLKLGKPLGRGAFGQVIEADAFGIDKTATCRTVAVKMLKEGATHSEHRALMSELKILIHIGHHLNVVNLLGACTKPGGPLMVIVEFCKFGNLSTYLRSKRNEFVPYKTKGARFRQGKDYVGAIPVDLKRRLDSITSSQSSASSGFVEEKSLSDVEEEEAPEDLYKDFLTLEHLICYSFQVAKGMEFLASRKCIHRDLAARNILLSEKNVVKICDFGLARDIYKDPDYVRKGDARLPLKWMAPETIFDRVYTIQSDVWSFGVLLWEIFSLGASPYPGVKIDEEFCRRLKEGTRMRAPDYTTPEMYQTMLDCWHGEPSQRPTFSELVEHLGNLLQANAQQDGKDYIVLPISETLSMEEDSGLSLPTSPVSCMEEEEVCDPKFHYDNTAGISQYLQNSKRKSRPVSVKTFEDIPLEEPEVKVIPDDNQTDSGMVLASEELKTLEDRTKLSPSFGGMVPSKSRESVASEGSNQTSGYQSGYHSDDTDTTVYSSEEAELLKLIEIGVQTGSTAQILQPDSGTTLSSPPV
- Test description: […]-ATP kinase assay, P81 filter binding
Test readout: pIC50
Quick note: pIC50 means taking -log10 of the concentration in moles per liter.

## Task Look at this molecule and give its reported pIC50. O=c1c(-c2ccc(O)c(O)c2)coc2cc(O)cc(O)c12
## Result 5.35
